Origin of values: PubChem BioAssay (NCATS)

test: qHTS of pediatric cancer cell lines to identify multiple opportunities for drug repurposing: Confirmatory screen for SK-N-MC cells (AID 1347111); settings: SK-N-MC cell viability; series mostly up to 45.9 µM;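 also: potency is read from the fitted curve at half-maximal effect; cells exposed to compound for 48 h before the readout; nearly all actives have a fitted effect of over 70% in size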
Results filed as inconclusive are left out. Active and inactive are the calls of the source. Calls follow the shape of the dose curve; as a rule, active = well fitted cell-killing curve with a large enough effect; inconclusive = small, poorly fitted or top-dose-only effect; inactive = no such curve, though single readings can be large or run the other way.
// allowed return values: active, inactive

>  <molecule>
COC(=O)C1C2CC3c4[nH]c5cc(OC)ccc5c4CCN3CC2CC(OC(=O)c2cc(OC)c(OC)c(OC)c2)C1OC (stereo not drawn)

>  <classification>
active

$$$$

INPUT: Please let me know the test result on file for COc1cc([C@@H]2c3cc4c(cc3[C@H](O)[C@H]3COC(=O)[C@@H]23)OCO4)cc(OC)c1OC .
OUTPUT: active

INPUT: Hello, I am checking results. What call was entered for CC[C@]12C=CCN3CC[C@@]4(c5cc([C@@]6(C(=O)OC)C[C@H]7C[C@@H](C(C)(F)F)CN(Cc8c6[nH]c6ccccc86)C7)c(OC)cc5N(C)[C@H]4[C@@](O)(C(=O)OC)[C@H]1OC(C)=O)[C@@H]32 ?
OUTPUT: active

----------
test system: MKL-1; assay: qHTS assay to identify novel small-molecules to repurpose for Merkel cell carcinoma treatment (AID 1296009); details: MCC and control cell lines, CellTiter-Glo viability, 72 h; series mostly up to 46 µM; also: nearly all actives have a fitted effect of over 60% in size
Results filed as inconclusive are left out. Activity calls are given as the source filed them. Calls follow the shape of the dose curve; as a rule, active = well fitted inhibition curve with a large enough effect; inconclusive = small, poorly fitted or top-dose-only effect; inactive = flat fitted curve, though single readings scatter.
Can you answer with just one of these options? 1 (active), 0 (inactive)

>  <molecule>
COC[C@H](NC(=O)c1cnc(C)s1)C(=O)N[C@@H](COC)C(=O)N[C@@H](Cc1ccccc1)C(=O)[C@@]1(C)CO1

>  <classification>
1

$$$$
>  <molecule>
CC(Oc1ccc(O)cc1)(P(=O)(O)O)P(=O)(O)O

>  <classification>
0

$$$$
>  <molecule>
CCCCOc1ccc(C(=O)Nc2ccc(F)cc2F)cc1

>  <classification>
0

$$$$
>  <molecule>
O=C1c2c(O)cccc2[C@@H]([C@@H]2O[C@H](CO)[C@@H](O)[C@H](O)[C@H]2O)c2cc(CO)cc(O)c21

>  <classification>
0

$$$$

Could you now look at the following molecule, please?
INPUT: Short answer needed: outcome of this test for OCCN1C[C@H](O)[C@@H](O)[C@H](O)[C@@H]1CO ?
OUTPUT: 0

----------
assay: qHTS of pediatric cancer cell lines to identify multiple opportunities for drug repurposing: Confirmatory screen for BT-12 cells (AID 1347112); conditions: BT-12 rhabdoid tumor cells, viability; series mostly up to 45.9 µM;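 also: potency is read from the fitted curve at half-maximal effect; viability read after 48 h of compound exposure; nearly all actives have a fitted effect of over 55% in size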
Inconclusive results are not listed. Activity calls are given as the source filed them. The call rests on the fitted dose curve; in most records, active means well fitted cell-killing curve with a large enough effect; inconclusive means small, poorly fitted or top-dose-only effect; inactive means flat fitted curve, though single readings scatter. Residues, ends and D or L forms follow the SMILES beside them. *: point of attachment. Cbz = O=C(OCc1ccccc1)*
Form field: Potency (one value per entry).

Take a look at these entries with their results.
>  <molecule>
CC(C=CC(=O)NO)=C[C@@H](C)C(=O)c1ccc(N(C)C)cc1

>  <Potency>
2930 nM (active)

$$$$
>  <molecule>
CS[C@H]1SC[C@@H]2C(=O)N(C)[C@H](C(C)C)C(=O)OC[C@H](NC(=O)c3cnc4ccccc4n3)C(=O)N[C@H](C)C(=O)N(C)[C@@H]1C(=O)N(C)[C@H](C(C)C)C(=O)OC[C@H](NC(=O)c1cnc3ccccc3n1)C(=O)N[C@H](C)C(=O)N2C

>  <Potency>
9.3 nM (active)

$$$$

INPUT: Consider the molecule CC(C)C[C@@H](C=O)NC(=O)[C@H](CC(C)C)NC(=O)[C@H](CC(C)C)NC(=O)OCc1ccccc1 (Cbz-Leu-Leu-Leu-aldehyde) and give its measured Potency.
OUTPUT: 1170 nM (active)

INPUT: Tell me the measured Potency of COc1cc2c(cc1OC)[C@@H]1C(=O)c3ccc4c(c3O[C@@H]1CO2)C=CC(C)(C)O4 , please.
OUTPUT: 1310 nM (active)

----------
test: Quantitative High-Throughput drug screen in 47 multiple myeloma cell lines against the NCATS MIPE library collection: FR4_PLB cell viability assay (AID 1918924; also: nearly all actives have a fitted effect of over 35% in size); conditions: FR4_PLB myeloma cells viability, CellTiter-Glo ATP, 48 h; series mostly up to 45.8 µM
Inconclusive results are not listed. Calls of active or inactive are those of the source. Calls follow the shape of the dose curve; as a rule, active = well fitted cell-killing curve with a large enough effect; inconclusive = small, poorly fitted or top-dose-only effect, or effect the other way; inactive = no such curve, though single readings can be large or run the other way. Non-standard residues stand in square brackets, D forms with d. Residues, ends and D or L forms follow the SMILES beside them. *: point of attachment. Nva = CCC[C@H](N)C(=O)O; Cbz = O=C(OCc1ccccc1)*
A correct response names exactly one class from 1 (yes) = active, 0 (no) = inactive

These solved cases illustrate the format of a correct answer.
>  <compound>
CC(=O)NCC(=O)N1[C@H]2CC[C@H]1c1cc(Nc3ncc(C(F)(F)F)c(NC4CCC4)n3)ccc12

>  <classification>
1 (yes)

$$$$
>  <compound>
CCOC(=O)C=C[C@H](C[C@@H]1CCNC1=O)NC(=O)[C@@H](CC(=O)[C@@H](NC(=O)c1cc(C)on1)C(C)C)Cc1ccc(F)cc1

>  <classification>
0 (no)

$$$$
>  <compound>
Nc1ncn([C@@H]2O[C@H](CO)[C@@H](O)[C@@H]2O)c(=O)n1

>  <classification>
1 (yes)

$$$$
>  <compound>
C[C@H](NC(=O)[C@@H](O)c1cc(F)cc(F)c1)C(=O)N[C@@H]1C(=O)N(C)c2ccccc2-c2ccccc21

>  <classification>
0 (no)

$$$$

INPUT: Dear all, I need the recorded test outcome for CC(C)(O)Cn1c(NC(=O)c2ccc(-c3cn[nH]c3)s2)nc2cc(CN3CCOCC3)ccc21 , thank you.
OUTPUT: 1 (yes)

INPUT: Dear colleague, could you share the recorded outcome for CC(=O)OCC(=O)[C@@]1(O)CC[C@H]2[C@@H]3CCC4=CC(=O)CC[C@]4(C)[C@@H]3C(=O)C[C@@]21C when you have a moment?
OUTPUT: 0 (no)

INPUT: Identify the outcome logged in this assay for the compound shown: CCC[C@@H](C=O)NC(=O)[C@H](CC(C)C)NC(=O)[C@H](CC(C)C)NC(=O)OCc1ccccc1 (Cbz-Leu-Leu-[Nva]-aldehyde)
OUTPUT: 1 (yes)

----------
assay: qHTS for identification of novel therapeutic agents for treatment of microphthalmiaassociated transcription factor (MiT) renal cell carcinoma (RCC) (AID 1963991); conditions: TFE3-RCC UOK109 viability, CellTiter-Glo, 48 h; measured here: UOK109 Z-AUC; stronger effect = lower value;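 also: curves scaled with 100% = DMSO viability and 0% = empty wells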
Records with an inconclusive call do not appear.
Catalogue of z-score readings, one per entry.
Would you mind answering with just the numeric figure?

>  <molecule>
CCCc1nc(C(C)(C)O)c(C(=O)O)n1Cc1ccc(-c2ccccc2-c2nn[nH]n2)cc1

>  <z-score>
1.09

$$$$
>  <molecule>
Cn1cc(-c2ccc3ncc(Cc4ccc5ncccc5c4)n3n2)cn1

>  <z-score>
-0.236

$$$$
>  <molecule>
C=C[C@@H]1CN2CCC1C[C@H]2[C@H](O)c1ccnc2ccc(OC)cc12 (stereo partly specified)

>  <z-score>
0.232

$$$$
>  <molecule>
Cn1cc(CNCC2CCN(c3ncc(C(=O)NO)cn3)CC2)c2ccccc21

>  <z-score>
-1.71

$$$$
>  <molecule>
C[C@H](CCC(=O)O)[C@H]1CC[C@H]2[C@@H]3[C@H](O)C[C@@H]4C[C@H](O)CC[C@]4(C)[C@@H]3CC[C@]12C

>  <z-score>
0.305

$$$$

INPUT: Param item = CC(C(C)N1CC(=O)NC(=O)C1)N1CC(=O)NC(=O)C1 (stereo unspecified) ; retrieve measured z-score.
OUTPUT: -0.243

----------
target: Glucocorticoid receptor (Homo sapiens); assay: GR-GFP Redistribution (AID 450); details: U2OS GR-GFP nuclear translocation, laser cytometry, 2 h; also: potency is read from the fitted curve at half-maximal effect
The source made the active and inactive calls.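 Rule for the calls: active = compounds whose dose series gives a full or clear partial fitted curve of increased nuclear translocation; inconclusive = weak partial curve or effect only at the top dose; inactive = no dose-dependent translocation response.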
measured attribute: Potency

>  <compound>
COc1cc2c(cc1O)CCC1C2CC[C@@]2(C)C1CC[C@@H]2O (stereo not given in full)

>  <Potency>
> 46 µM (inactive)

$$$$
>  <compound>
CC(Oc1ccc(O)cc1)(P(=O)(O)O)P(=O)(O)O

>  <Potency>
> 46 µM (inactive)

$$$$

INPUT: Look up Potency: Nc1nc2c(c(=O)[nH]1)N(C=O)[C@H](CNc1ccc(C(=O)N[C@@H](CCC(=O)O)C(=O)O)cc1)CN2
OUTPUT: > 20.6 µM (inactive)

INPUT: What value of Potency has been recorded for this entry: CCOC(=O)C1=C(C)NC(=S)NC1c1cccc(O)c1 (stereo not given)
OUTPUT: > 46 µM (inactive)

INPUT: Which measured Potency value corresponds to COc1cc2c(cc1OC)[C@@H]1C(=O)c3ccc4c(c3O[C@@H]1CO2)C=CC(C)(C)O4 ?
OUTPUT: > 46 µM (inactive)

----------
assay: Quantitative High-Throughput drug screen in 47 multiple myeloma cell lines against the NCATS MIPE library collection: VP6_DJ cell viability assay (AID 1919867); conditions: ATP luminescence, 48 h; series mostly up to 45.8 µM; also: potency is read from the fitted curve at half-maximal effect; nearly all actives have a fitted effect of over 40% in size
Inconclusive results are not listed. Calls of active or inactive are those of the source. Calls follow the shape of the dose curve; as a rule, active = well fitted cell-killing curve with a large enough effect; inconclusive = small, poorly fitted or top-dose-only effect, or effect the other way; inactive = no such curve, though single readings can be large or run the other way.
Parameter call: string, one of active, inactive

INPUT: What is the recorded call for this compound in the test? C=CC(=O)Nc1cc(NC(=O)c2ccc(C)c(NC(=O)c3ccno3)c2)cc(C(F)(F)F)c1
OUTPUT: active

INPUT: Look up the recorded call for CC(C)[C@H](CO)Nc1nc(Nc2cccc(Cl)c2)c2ncn(C(C)C)c2n1 in this test.
OUTPUT: active
